- System: KM mice
- assayProtocol: Test for drug-induced disappearance of righting reflex in mice
- Format: in vivo
- conditionInfo: 60 mg/kg, single rapid bolus via tail vein
testReadout: Latency (min)
API: value field is a number in min; no unit string.

Worked set:
compound="COC(=O)CC[C@@H]1N=C(c2ccccc2F)c2cc([N+](=O)[O-])ccc2-n2c(SCC3CC3)nnc21 [Compound 47]" targetdesc="KM mice" testreadout=Latency unitdescriptor=min obsvalue=0.82
compound="COC(=O)CC[C@@H]1N=C(c2ccccc2F)c2cc(Cl)ccc2-n2c(SCN3CCN(c4ccccc4)CC3)nnc21 [Compound 72]" targetdesc="KM mice" testreadout=Latency unitdescriptor=min obsvalue=1.52

Form: item C#CCSc1nnc2n1-c1ccc([N+](=O)[O-])cc1C(c1ccccc1Cl)=N[C@H]2CCC(=O)OC [Compound 80] ; test system KM mice; Latency: 0.86

Form: item COC(=O)CC[C@@H]1N=C(c2ccccc2Cl)c2cc(Br)ccc2-n2c(SCCN3CCCC3)nnc21 [Compound 121] ; test system KM mice; Latency: 0.18

Form: item COC(=O)CC[C@@H]1N=C(c2ccccc2Cl)c2cc([N+](=O)[O-])ccc2-n2c(SCCCN(C)C)nnc21 [Compound 89] ; test system KM mice; Latency: 0.83

Form: item COC(=O)CC[C@@H]1N=C(c2ccccc2F)c2cc(Cl)ccc2-n2c(SCCCN3CCN(CCO)CC3)nnc21 [Compound 66] ; test system KM mice; Latency: 0.89

* * *

- Test system: KM mice
- assayProtocol: Test for drug-induced disappearance of righting reflex in mice
- Type: in vivo
- conditionInfo: 30 mg/kg, single rapid bolus via tail vein
testReadout: Latency (min)
API: value field is a number in min; no unit string.

compound="CCCSc1nnc2n1-c1ccc(Cl)cc1C(c1ccccc1Cl)=N[C@H]2CCC(=O)OC [Compound 29]" targetdesc="KM mice" unitdescriptor=min obsvalue=0.57
compound="COC(=O)CC[C@@H]1N=C(c2ccccc2Cl)c2cc(Cl)ccc2-n2c(SCCN3CCC(F)(F)CC3)nnc21 [Compound 127]" targetdesc="KM mice" unitdescriptor=min obsvalue=0.43
compound="COC(=O)CC[C@@H]1N=C(c2ccccc2F)c2cc(Cl)ccc2-n2c(SCCN3CCN(C)CC3)nnc21 [Compound 60]" targetdesc="KM mice" unitdescriptor=min obsvalue=0.49

# ---- query compound ----
Record CCN(C)C(=O)Sc1nnc2n1-c1ccc(Cl)cc1C(c1ccccc1Cl)=N[C@H]2CCC(=O)OC [Compound 142] , field Latency: 0.21

* * *

- System: KM mice
- assayProtocol: Test for drug-induced disappearance of righting reflex in mice
- Type: in vivo
- conditionInfo: 60 mg/kg, single rapid bolus via tail vein
- Description: In anesthetic drug experiments, latency generally refers to the time from the start of administration to the loss of consciousness of the subject. The shorter latency is preferred, indicating a rapid onset of action after administration. […] KM mice (female, 18-25 g) were randomly grouped and subjected to a single administration by rapid bolus via the tail vein. The latency and duration of disappearance of righting reflex in the mice were recorded.
testReadout: Latency (min)
API: value field is a number in min; no unit string.

Record "COC(=O)CC[C@@H]1N=C(c2ccccc2F)c2cc(Br)ccc2-n2c(SCCN)nnc21" , field Latency: 0.2

Record "COC(=O)CC[C@@H]1N=C(c2ccccc2F)c2cc(Cl)ccc2-n2c(SCCN3CCOCC3)nnc21" , field Latency: 0.25

Record "COC(=O)CC[C@@H]1N=C(c2ccccc2Cl)c2cc(Br)ccc2-n2c(SCCN)nnc21" , field Latency: 0.34

Record "CCOC(=O)CC[C@@H]1N=C(c2ccccc2Cl)c2cc(Cl)ccc2-n2c(S)nnc21" , field Latency: 0.40

* * *

- Test system: KM mice
- assayProtocol: Test for drug-induced disappearance of righting reflex in mice
- Assay type: in vivo
- conditionInfo: 30 mg/kg, single rapid bolus via tail vein
testReadout: Latency (min)
API: value field is a number in min; no unit string.

Worked set:
smiles=COC(=O)CC[C@@H]1N=C(c2ccccc2Cl)c2cc(Cl)ccc2-n2c(SCCN(C)C)nnc21 targetdesc="KM mice" testreadout=Latency obsvalue=0.26
smiles=CCN(CC)CCCSc1nnc2n1-c1ccc(Cl)cc1C(c1ccccc1Cl)=N[C@H]2CCC(=O)OC targetdesc="KM mice" testreadout=Latency obsvalue=0.87
smiles=COC(=O)CC[C@@H]1N=C(c2ccccc2F)c2cc([N+](=O)[O-])ccc2-n2c(SC3CCN(C)CC3)nnc21 targetdesc="KM mice" testreadout=Latency obsvalue=1.74

# ---- query molecule ----
Form: item "COC(=O)CC[C@@H]1N=C(c2ccccc2F)c2cc(Br)ccc2-n2c(SCCn3ccnc3)nnc21" ; test system KM mice; Latency: 0.38

* * *

- System: KM mice
- assayProtocol: Test for drug-induced disappearance of righting reflex in mice
- Type: in vivo
- conditionInfo: 30 mg/kg, single rapid bolus via tail vein
Hi! Just check whether Latency is below 0.6 min. Below gives 1 (yes), equal or above gives 0 (no).

smiles=COC(=O)CC[C@@H]1N=C(c2ccccc2)c2cc([N+](=O)[O-])ccc2-n2c(SCCCN(C)C)nnc21 targetdesc="KM mice" class="1 (yes)"
smiles=CCN(CC)CCSc1nnc2n1-c1ccc([N+](=O)[O-])cc1C(c1ccccc1Cl)=N[C@H]2CCC(=O)OC targetdesc="KM mice" class="0 (no)"
smiles=COC(=O)CC[C@@H]1N=C(c2ccccc2Cl)c2cc([N+](=O)[O-])ccc2-n2c(SC3CCN(C)CC3)nnc21 targetdesc="KM mice" class="0 (no)"

Prompt: Dear reviewer, please state whether "COC(=O)CC[C@@H]1N=C(c2ccccc2Cl)c2cc([N+](=O)[O-])ccc2-n2c(SCCCN3CCN(CCO)CC3)nnc21" has Latency strictly beneath 0.6 min.
Completion: 0 (no)

Prompt: Dear reviewer, please state whether "COC(=O)CC[C@@H]1N=C(c2ccccc2Cl)c2cc([N+](=O)[O-])ccc2-n2c(SCCO)nnc21" has Latency strictly beneath 0.6 min.
Completion: 1 (yes)

Prompt: Dear reviewer, please state whether "CCN(CC)CCSc1nnc2n1-c1ccc([N+](=O)[O-])cc1C(c1ccccc1F)=N[C@H]2CCC(=O)OC" has Latency strictly beneath 0.6 min.
Completion: 0 (no)

Prompt: Dear reviewer, please state whether "COC(=O)CC[C@@H]1N=C(c2ccccc2F)c2cc([N+](=O)[O-])ccc2-n2c(SCCO)nnc21" has Latency strictly beneath 0.6 min.
Completion: 0 (no)

* * *

Documented Latency across a set of compounds
- Tested on: KM mice
- assayProtocol: Test for drug-induced disappearance of righting reflex in mice
- Assay type: in vivo
- conditionInfo: 30 mg/kg, single rapid bolus via tail vein
- Method: In anesthetic drug experiments, latency generally refers to the time from the start of administration to the loss of consciousness of the subject. The shorter latency is preferred, indicating a rapid onset of action after administration. […] KM mice (female, 18-25 g) were randomly grouped and subjected to a single administration by rapid bolus via the tail vein. The latency and duration of disappearance of righting reflex in the mice were recorded.
API: value field is a number in min; no unit string.

compound="COC(=O)CC[C@@H]1N=C(c2ccccc2Cl)c2cc(Cl)ccc2-n2c(SCCN3CCN(C)CC3)nnc21 [Compound 90]" testreadout=Latency obsvalue=0.67
compound="COC(=O)CC[C@@H]1N=C(c2ccccc2F)c2cc(Cl)ccc2-n2c(SCN3CCOCC3)nnc21 [Compound 69]" testreadout=Latency obsvalue=0.90
compound="COC(=O)CC[C@@H]1N=C(c2ccccc2F)c2cc(Cl)ccc2-n2c(SCCN)nnc21 [Compound 20]" testreadout=Latency obsvalue=0.27

# ---- query compound ----
Record COC(=O)CC[C@@H]1N=C(c2ccccc2F)c2cc(Br)ccc2-n2c(SCCCN(C)C)nnc21 [Compound 58] , field Latency: 0.25

* * *

- System: hCMEC/D3 cells
- assayProtocol: Rate of drug passing through in vitro blood-brain barrier (Transwell)
- Format: in vitro ADME
- conditionInfo: hCMEC/D3 monolayer, compound 0.1 mg/mL
testReadout: In vitro blood-brain barrier, compound permeability at 5 min (%)
API: value field is a number in %; no unit string.

Worked set:
smiles=CCSc1nnc2n1-c1ccc(Cl)cc1C(c1ccccc1Cl)=N[C@H]2CCC(=O)OC obsvalue=52.8
smiles=COC(=O)CC[C@@H]1N=C(c2ccccc2Cl)c2cc(Br)ccc2-n2c(SCCO)nnc21 obsvalue=83.4
smiles=COC(=O)CC[C@@H]1N=C(c2ccccc2Cl)c2cc(Cl)ccc2-n2c(SCCN3CCCC3)nnc21 obsvalue=83.3

Record "COC(=O)CC[C@@H]1N=C(c2ccccc2F)c2cc([N+](=O)[O-])ccc2-n2c(SCCN3CCOCC3)nnc21" , field In vitro blood-brain barrier, compound permeability at 5 min: 69.9

* * *

- Test system: KM mice
- assayProtocol: Test for drug-induced disappearance of righting reflex in mice
- Format: in vivo
- conditionInfo: 30 mg/kg, single rapid bolus via tail vein
Hi! Just check whether Latency is below 0.8 min. Below gives Y, equal or above gives N.

Use the examples below as a reference point.
smiles=COC(=O)CC[C@@H]1N=C(c2ccccn2)c2cc(Br)ccc2-n2c(SCCN3CCOCC3)nnc21 class=Y
smiles=CCOC(=O)CC[C@@H]1N=C(c2ccccc2Cl)c2cc([N+](=O)[O-])ccc2-n2c(SC)nnc21 class=N
smiles=COC(=O)CC[C@@H]1N=C(c2ccccc2Cl)c2cc([N+](=O)[O-])ccc2-n2c(SCC3CC3)nnc21 class=Y

Prompt: Dear reviewer, please state whether "COC(=O)CC[C@@H]1N=C(c2ccccc2Cl)c2cc(Cl)ccc2-n2c(Sc3cn(C)cn3)nnc21" has Latency strictly beneath 0.8 min.
Completion: Y

Prompt: Dear reviewer, please state whether "COC(=O)CC[C@@H]1N=C(c2ccccc2F)c2cc(Br)ccc2-n2c(SCCO)nnc21" has Latency strictly beneath 0.8 min.
Completion: Y

Prompt: Dear reviewer, please state whether "COC(=O)CC[C@@H]1N=C(c2ccccc2)c2cc(Cl)ccc2-n2c(S)nnc21" has Latency strictly beneath 0.8 min.
Completion: N
